target: SSTR2 (Homo sapiens); assay: NanoBiT β-arrestin 1 recruitment assay, HEK293 (SSTR2 wild-type); type: cell-based; set-up: Human full-length SSTR wild-type and mutant vectors were C-terminally fused; expressed in transfected cells; host or cells: HEK293; details: EC50 (best-fit), WT-2 (Q102A set)
Sequence (P30874 whole entry, the tested form may be a part): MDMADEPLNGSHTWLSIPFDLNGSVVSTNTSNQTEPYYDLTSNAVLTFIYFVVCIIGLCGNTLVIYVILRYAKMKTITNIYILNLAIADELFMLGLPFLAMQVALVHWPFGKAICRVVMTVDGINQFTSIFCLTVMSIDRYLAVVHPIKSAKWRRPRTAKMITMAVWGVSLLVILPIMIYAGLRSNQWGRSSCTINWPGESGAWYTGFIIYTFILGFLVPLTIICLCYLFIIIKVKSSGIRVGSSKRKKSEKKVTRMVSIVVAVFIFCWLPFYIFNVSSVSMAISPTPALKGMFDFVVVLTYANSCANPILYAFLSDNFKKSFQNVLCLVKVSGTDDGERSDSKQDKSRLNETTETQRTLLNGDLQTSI
Sequence (P49407 whole entry partner, the tested form may be a part): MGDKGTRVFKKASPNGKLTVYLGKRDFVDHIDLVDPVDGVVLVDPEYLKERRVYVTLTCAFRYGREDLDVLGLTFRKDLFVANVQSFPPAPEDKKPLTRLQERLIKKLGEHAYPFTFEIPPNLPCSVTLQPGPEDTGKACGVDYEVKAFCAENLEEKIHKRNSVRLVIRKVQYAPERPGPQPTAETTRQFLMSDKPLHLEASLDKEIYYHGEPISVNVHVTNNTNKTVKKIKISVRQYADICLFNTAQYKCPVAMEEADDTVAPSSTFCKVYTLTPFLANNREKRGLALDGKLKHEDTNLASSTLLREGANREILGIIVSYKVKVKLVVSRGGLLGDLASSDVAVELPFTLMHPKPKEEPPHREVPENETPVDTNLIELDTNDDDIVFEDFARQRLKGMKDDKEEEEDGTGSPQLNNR
observable: EC50 (nM)
Give a bare numeral; the unit nM is implied.

Please give the documented EC50 of N#Cc1cccc(-c2ccc3ncc(-c4cc(F)cc(F)c4)c(N4CCC(N)CC4)c3c2)c1O
339

----------
Test system: SSTR2 mutants
Experiment: NanoBiT β-arrestin 1 recruitment assay, HEK293 (SSTR2 mutants)
Type: cell-based, human
Conditions: read-out: EC50 (best-fit); F127A-3
Protocol: The NanoBiT β-arrestin 1 recruitment assays were carried out according to the method described previously. […] Human full-length SSTR wild-type and mutant vectors were C-terminally fused with a 15-amino acid flexible linker and the small fragment (SmBiT). […] Then, ligands diluted in the assay buffer was added to each well and the luminescence intensity was measured using the Synergy H1 microplate reader and detected at room temperature in a time period. […]
observable: pEC50
pEC50 (log units): -log10 of the concentration in mol/L.

Consider the molecule N#Cc1cccc(-c2ccc3ncc(-c4cc(F)cc(F)c4)c(N4CCC(N)CC4)c3c2)c1O . State its measured pEC50.
6.82
